Value source: patent US9453034B2

- experimental-target: purified human autoBACE-2 (Homo sapiens (Human))
- Sequence (Q9Y5Z0 63-473): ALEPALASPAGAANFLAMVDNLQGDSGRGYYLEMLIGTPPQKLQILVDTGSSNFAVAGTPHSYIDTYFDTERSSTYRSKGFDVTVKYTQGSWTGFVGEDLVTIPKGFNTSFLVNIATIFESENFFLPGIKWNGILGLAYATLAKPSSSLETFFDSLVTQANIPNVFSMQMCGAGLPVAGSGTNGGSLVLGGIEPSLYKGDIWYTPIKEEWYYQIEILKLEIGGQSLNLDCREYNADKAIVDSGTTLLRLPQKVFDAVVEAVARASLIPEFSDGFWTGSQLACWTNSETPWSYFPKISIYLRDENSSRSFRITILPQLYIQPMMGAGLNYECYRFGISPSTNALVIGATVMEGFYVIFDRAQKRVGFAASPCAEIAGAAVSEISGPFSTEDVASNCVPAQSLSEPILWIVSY
Kindly apply the following: 1 (yes) if Ki is less than 3 nM, 0 (no) in every other case.

COc1cnc(C(=O)Nc2ccc(F)c([C@]3(C)CS(=O)(=O)C4(CN(C)C4)C(=N)N3)c2)c(C)c1 [Example 9] ... 1 (yes)
COc1ccc(C(=O)Nc2ccc(F)c([C@]3(C)CS(=O)(=O)C4(CN(c5ccc([N+](=O)[O-])cc5)C4)C(=N)N3)c2)nc1 [Example 42] ... 1 (yes)
CN1CC2(C1)C(=N)N[C@](C)(c1cc(NC(=O)c3ccc(Cl)cn3)ccc1F)CS2(=O)=O [Example 5] ... 1 (yes)

Does this compound meet the criterion Ki < 3 nM? Cc1cc(C#N)cnc1C(=O)Nc1ccc(F)c([C@]2(C)CS(=O)(=O)C3(CN(C)C3)C(=N)N2)c1 [Example 11] 1 (yes)

Does this compound meet the criterion Ki < 3 nM? COc1ccc(C(=O)Nc2ccc(F)c([C@]3(C)CS(=O)(=O)C4(CNC4)C(=N)N3)c2)nc1 [Example 36d] 0 (no)

Does this compound meet the criterion Ki < 3 nM? CN1CCC2(CC1)C(=N)N[C@](C)(c1cc(NC(=O)c3ccc(OC(F)F)cn3)ccc1F)CS2(=O)=O [Example 31] 0 (no)

Does this compound meet the criterion Ki < 3 nM? CN1CCC2(CC1)C(=N)N[C@](C)(c1cc(NC(=O)c3ccc(F)cn3)ccc1F)CS2(=O)=O [Example 26] 0 (no)

Does this compound meet the criterion Ki < 3 nM? CN1CC2(C1)C(=N)N[C@](C)(c1cc(NC(=O)c3ncc(C#N)cc3C3CC3)ccc1F)CS2(=O)=O [Example 12a] 1 (yes)

Does this compound meet the criterion Ki < 3 nM? CN1CCC2(CC1)C(=N)N[C@](C)(c1cc(NC(=O)c3ccc(OCF)cn3)ccc1F)CS2(=O)=O [Example 32] 0 (no)

Does this compound meet the criterion Ki < 3 nM? Cc1cc(C#N)cnc1C(=O)Nc1ccc(F)c([C@]2(C)CS(=O)(=O)C3(CNC3)C(=N)N2)c1 [Example 36e] 1 (yes)

Does this compound meet the criterion Ki < 3 nM? C[C@@]1(c2cc(NC(=O)c3ccc(C#N)cn3)ccc2F)CS(=O)(=O)C2(CNC2)C(=N)N1 [Example 36c] 1 (yes)

Does this compound meet the criterion Ki < 3 nM? COc1cnc(C(=O)Nc2ccc(F)c([C@]3(C)CS(=O)(=O)C4(CN(C)C4)C(=N)N3)c2)cn1 [Example 4] 0 (no)

Does this compound meet the criterion Ki < 3 nM? Cc1cc(C#N)cnc1C(=O)Nc1ccc(F)c([C@]2(C)CS(=O)(=O)C3(CCN(C)CC3)C(=N)N2)c1 [Example 35] 0 (no)

Does this compound meet the criterion Ki < 3 nM? CN1CC2(C1)C(=N)N[C@](C)(c1cc(NC(=O)c3ncc(C#N)cc3C(F)F)ccc1F)CS2(=O)=O [Example 12b] 1 (yes)

====

# Ki per entry for purified human autoBACE-2 (Homo sapiens (Human), UniProt Q9Y5Z0)
Remember to quote the unit after the number.

Before answering, review these 3 worked examples.
COCC(=O)Nc1ccc(F)c([C@]2(C)CS(=O)(=O)C3(CCN(C)CC3)C(=N)N2)c1 [Example 36b] ... 56 nM
COc1ccc(C(=O)Nc2ccc(F)c([C@]3(C)CS(=O)(=O)C4(CN(C)C4)C(=N)N3)c2)nc1 ... 1.6 nM
COc1ccc(C(=O)Nc2ccc(F)c([C@]3(C)CS(=O)(=O)C4(CCN(C)CC4)C(=N)N3)c2)nc1 ... 24 nM

Observed Ki, purified human autoBACE-2 (Homo sapiens (Human), UniProt Q9Y5Z0), COc1cnc(C(=O)Nc2ccc(F)c([C@]3(C)CS(=O)(=O)C4(CCN(C)CC4)C(=N)N3)c2)cn1 : 29 nM

====

# pKi per entry for soluble human BACE1 catalytic domain (Homo sapiens (Human), UniProt P56817)
Conceptually, pKi converts a concentration in mol/L into minus its log10.

CN1CC2(C1)C(=N)N[C@](C)(c1cc(NC(=O)c3ncc(C#N)cc3C(F)F)ccc1F)CS2(=O)=O [Example 12b] ... 8.85
COc1ccc(C(=O)Nc2ccc(F)c([C@]3(C)CS(=O)(=O)C4(CN(C)C4)C(=N)N3)c2)nc1 ... 8.20
CN1CCC2(CC1)C(=N)N[C@](C)(c1cc(NC(=O)c3ccc(OCF)cn3)ccc1F)CS2(=O)=O ... 7.85
CN1CC2(C1)C(=N)N[C@](C)(c1cc(NC(=O)c3ncc(C#N)cc3C3CC3)ccc1F)CS2(=O)=O [Example 12a] ... 8.89
COCC(=O)Nc1ccc(F)c([C@]2(C)CS(=O)(=O)C3(CCN(C)CC3)C(=N)N2)c1 [Example 36b] ... 6.26

Quick note, pKi for COc1cnc(C(=O)Nc2ccc(F)c([C@]3(C)CS(=O)(=O)C4(CCN(C)CC4)C(=N)N3)c2)cn1 landed at 7.72

Quick note, pKi for CN1CC2(C1)C(=N)N[C@](C)(c1cc(NC(=O)c3ccc(OC(F)(F)F)cn3)ccc1F)CS2(=O)=O landed at 8.48

Quick note, pKi for COc1cnc(C(=O)Nc2ccc(F)c([C@]3(C)CS(=O)(=O)C4(CCN(C)CC4)C(=N)N3)c2)c(C)n1 landed at 7.43

Quick note, pKi for CN1CCC2(CC1)C(=N)N[C@](C)(c1cc(NC(=O)c3ccc(OC(F)F)cn3)ccc1F)CS2(=O)=O landed at 7.96

Quick note, pKi for C[C@@]1(c2cc(NC(=O)c3ccc(C#N)cn3)ccc2F)CS(=O)(=O)C2(CNC2)C(=N)N1 [Example 36c] landed at 8.43

Quick note, pKi for COc1cnc(C(=O)Nc2ccc(F)c([C@]3(C)CS(=O)(=O)C4(CCN(C)CC4)C(=N)N3)c2)c(C)c1 landed at 7.43
